- Test system: HS 578T breast
- Experimental Protocol: NCI-60 one-dose screen, 48 h
- Run Conditions: 10 µM unless noted
This is part of a sample that, as a whole, favours compounds with a hit. Of some 83,000 tested, about 20% had one in any assay. Activity calls are given as the source filed them. The calls were made as follows: active = growth percent below 10; inactive = the rest.
Outcomes: yes (active), no (inactive)

>  <Compound>
CC(NNC(C)c1ccccc1)c1ccccc1 (stereo unspecified)

>  <Label>
no

$$$$
>  <Compound>
CC(C)(C)OC(=O)NC(CSCc1ccccc1)C(=O)ON1C(=O)CCC1=O (stereo unspecified)

>  <Label>
no

$$$$
>  <Compound>
COc1cc(Cn2cc3c(c2)-c2oncc2CC3)cc(OC)c1OC

>  <Label>
yes

$$$$
>  <Compound>
CCN(CC)c1ccc(CNc2ccnc3ccccc23)cc1

>  <Label>
no

$$$$
>  <Compound>
O=C(NNC(=O)N1c2ccccc2C=Cc2ccccc21)c1ccccc1

>  <Label>
no

$$$$
>  <Compound>
C/C=C/C1=CN2C(=O)c3cc(OC4OC(C)C(NC)C(C)(O)C4O)c(C)cc3N=C[C@@H]2C1 (stereo partly specified)

>  <Label>
yes

$$$$
